Data origin, for the record: paper PMC8778314

Can you tell me melting point for the items I'm about to list?

| smiles.representation | recorded.value |
| --- | --- |
| COc1cc2c(cc1Cl)Cc1c-2nn(-c2ccc(C)cc2)c1-c1ccc(N2CCCCC2)cc1 | 123 to 124 °C |
| COc1cc2c(cc1Cl)Cc1c-2nn(-c2ccc(S(C)(=O)=O)cc2)c1-c1ccc(N2CCCCC2)cc1 | 116 to 117 °C |
| COc1cc2c(cc1Cl)Cc1c-2nn(-c2ccc(Br)cc2)c1-c1ccc(N2CCCCC2)cc1 | 125 to 126 °C |

Please turn your attention to the following entry.
Param item = COc1cc2c(cc1Cl)Cc1c-2nn(-c2ccc(F)cc2)c1-c1ccc(N2CCCCC2)cc1 ; retrieve measured melting point.
188 to 190 °C
